METHOD_SUMMARY: yeast display, Sf9 membrane polyspecificity reagent, FACS + sequencing; frameworks hold sequencing errors
RECORDED_ENDPOINT: polyreactivity (PSR sort gate)

RESIDUE_CODES: QVQLVESGGGLVQAGGSLRLSCAASGLTFDYYVMGWYRQAPGKERELVATISWSGDITYYADSVKGRFTISRDNAKNTVYLQMNSLKPEDTAVYYCATDKSYSSWSAQYDYWGQGTQVTVSS
REPORTED_MEASUREMENT: low polyreactivity
--
RESIDUE_CODES: QVQHVETGGGLVQAGGSLRLSCAASGFIFSQYAMGWYRQAPGKERELVAAISSGSTYADSVKGRVTISRDNAKNTVYLQMNSLKPEDTAVYYCAVDYHQAWPSADYWFEYVYWGQGTQVTVSS
REPORTED_MEASUREMENT: low polyreactivity
